Tested on: Winter wheat cv Limerick
Method: Winter wheat Trial 3, pot trial, sprayed at GS23
Assay type: in vivo
Reported Conditions: winter wheat pots, GS33
Method: The applied concentration of chemical can vary widely depending on the water volume applied to plants as well as other factors such as plant age and size, and plant sensitivity to the product. […] The rate of other components such as spreaders and stickers can be 50-200 ml per ha. C. […] Sprayed: 10 June, at GS23 (early-mid tillering). Plants were scored/assessed at GS33 on 12 July, with other measurements at crop maturity.

| Molecule | Total No of Shoots/Plant at GS33 |
| --- | --- |
| CCOC(=O)C1CC(=O)C(=C(O)C2CC2)C(=O)C1 (stereo not drawn) | 3.8 |
| CC1(C)CCC(Cc2ccc(Cl)cc2)C1(O)Cn1cncn1 (stereo not drawn) [MET, Metconazole] | 3.8 |
| CC(=O)Nc1ccc(O)cc1 [AC, N-(4-hydroxypheyl)acetamide] | 3.0 |
| C[N+](C)(C)CCCl [CCC, Chlormequat chloride] | 3.8 |
| CC1(C)CCC(Cc2ccc(Cl)cc2)C1(O)Cn1cncn1 (stereo not drawn) [MET2, Metconazole] | 3.8 |
| Nc1ccccc1C(=O)O | 3.0 |

###

Test system: Winter wheat cv Limerick
Method: Winter wheat Trial 3, pot trial, sprayed at GS23
Assay type: in vivo
Reported Conditions: winter wheat pots, score 0-9, 28 days after spraying
The reader will find reported Rooting (0-9) + 28 Days values listed item by item below.

| Molecule | Rooting (0-9) + 28 Days |
| --- | --- |
| C[N+](C)(C)CCCl [CCC, Chlormequat chloride] | 6.0 |
| CC(=O)Nc1ccc(O)cc1 [AC, N-(4-hydroxypheyl)acetamide] | 5.4 |
| Nc1ccccc1C(=O)O [AN, anthranilic acid] | 5.4 |
| CCOC(=O)C1CC(=O)C(=C(O)C2CC2)C(=O)C1 (stereo not drawn) [MOD, Trinexapac-ethyl] | 6.4 |
| CC1(C)CCC(Cc2ccc(Cl)cc2)C1(O)Cn1cncn1 (stereo not drawn) [MET2, Metconazole] | 6.0 |
| CC1(C)CCC(Cc2ccc(Cl)cc2)C1(O)Cn1cncn1 (stereo not drawn) [MET, Metconazole] | 6.0 |

###

The reader will find reported Final Seed Yield at Harvest (g per pot) values listed item by item below.
Test system: Navy bean cv Primel
Method: Navy bean Trial 2, pot trial, foliar spray at V2-V3
Assay type: in vivo
Reported Conditions: navy bean, one plant per pot
Measured Quantity: Final Seed Yield at Harvest (g per pot)

| Molecule | System Name | Endpoint Unit | Recorded Number |
| --- | --- | --- | --- |
| Nc1ccccc1C(=O)O | Navy bean cv Primel | g per pot | 52.0 |
| CC1(C)CCC(Cc2ccc(Cl)cc2)C1(O)Cn1cncn1 (stereo not drawn) [MET, Metconazole] | Navy bean cv Primel | g per pot | 57.2 |
| CC1(C)CCC(Cc2ccc(Cl)cc2)C1(O)Cn1cncn1 (stereo not drawn) [MET2, Metconazole] | Navy bean cv Primel | g per pot | 57.4 |
| CC(=O)Nc1ccc(O)cc1 [AC, N-(4-hydroxypheyl)acetamide] | Navy bean cv Primel | g per pot | 52.4 |
| CCOC(=O)C1CC(=O)C(=C(O)C2CC2)C(=O)C1 (stereo not drawn) | Navy bean cv Primel | g per pot | 56.1 |
| C[N+](C)(C)CCCl [CCC, Chlormequat chloride] | Navy bean cv Primel | g per pot | 55.6 |
